Molecular target: PDGFβ (Homo sapiens, UniProt P09619)
Sequence (P09619 33-1106): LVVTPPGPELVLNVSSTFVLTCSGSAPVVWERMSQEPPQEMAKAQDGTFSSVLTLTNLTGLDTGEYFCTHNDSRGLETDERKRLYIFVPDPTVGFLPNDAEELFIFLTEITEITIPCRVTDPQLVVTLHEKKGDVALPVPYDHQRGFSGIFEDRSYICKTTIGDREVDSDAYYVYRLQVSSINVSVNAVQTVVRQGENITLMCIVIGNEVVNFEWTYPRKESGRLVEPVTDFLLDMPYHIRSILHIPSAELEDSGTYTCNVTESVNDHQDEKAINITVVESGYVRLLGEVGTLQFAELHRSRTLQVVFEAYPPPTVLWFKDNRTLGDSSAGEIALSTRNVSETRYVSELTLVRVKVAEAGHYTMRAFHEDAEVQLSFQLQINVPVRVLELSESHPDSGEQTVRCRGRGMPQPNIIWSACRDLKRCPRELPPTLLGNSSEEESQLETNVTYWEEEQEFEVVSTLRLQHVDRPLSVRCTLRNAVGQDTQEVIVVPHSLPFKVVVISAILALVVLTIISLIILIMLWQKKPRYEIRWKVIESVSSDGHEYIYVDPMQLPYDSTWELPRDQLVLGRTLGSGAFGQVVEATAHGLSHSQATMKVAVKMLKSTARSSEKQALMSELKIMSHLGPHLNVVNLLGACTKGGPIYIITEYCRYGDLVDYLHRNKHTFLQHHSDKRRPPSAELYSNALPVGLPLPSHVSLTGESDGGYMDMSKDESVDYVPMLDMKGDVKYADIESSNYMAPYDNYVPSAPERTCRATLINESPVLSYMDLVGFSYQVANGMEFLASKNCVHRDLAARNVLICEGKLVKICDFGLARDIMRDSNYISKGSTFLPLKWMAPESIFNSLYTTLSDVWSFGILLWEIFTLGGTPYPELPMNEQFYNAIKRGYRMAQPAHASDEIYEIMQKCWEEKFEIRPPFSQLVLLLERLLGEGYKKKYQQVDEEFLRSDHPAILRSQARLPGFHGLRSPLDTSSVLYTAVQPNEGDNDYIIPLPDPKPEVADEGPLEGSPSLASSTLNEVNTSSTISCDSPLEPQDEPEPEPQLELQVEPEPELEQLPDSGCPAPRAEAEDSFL
Test: PDGFβ enzyme assay
Format: biochemical
Details: Table IV, amide or urea linker
pIC50: −log10 of the molar value.
PROPERTY_MEASURED: pIC50

{"COMPOUND": "CCNC(=O)CC[C@H](NC(=O)c1c[nH]c(-c2cc(Oc3cc(C(=O)Nc4cc(C)ccc4F)ccc3F)ccn2)c1)C(=O)NCC (stereo in doubt) [Example 246]", "pIC50": 7.27}

[1] COC(=O)[C@@H]1C[C@@H](O)CN1CCCNC(=O)c1c[nH]c(-c2cc(Oc3ccc(NC(=O)Nc4cc(C)ccc4F)cc3)ccn2)c1 (relative stereo) [Example 164]
[2] CCOC(=O)CCNC(=O)c1c[nH]c(-c2cc(Oc3ccc(NC(=O)Nc4cc(C)ccc4F)c(F)c3)ccn2)c1 [Example 231]
// compare measured pIC50 between 1 and 2 ; output the lower one // caller expects the label of the chosen entry
2

[A] Cc1ccc(F)c(NC(=O)Nc2ccc(Oc3ccnc(-c4cc(C(=O)NCCCN5CCCC(CO)C5)c[nH]4)c3)cc2F)c1 (stereo not drawn) [Example 205]
[B] COC(=O)CN(CCNC(=O)c1c[nH]c(-c2cc(Oc3ccc(NC(=O)Nc4cc(C)ccc4F)c(F)c3)ccn2)c1)CC(=O)OC [Example 215]
Which numeric pIC50 is bigger, that of A or that of B ? Label of pick, please.
A

----------
Biological target: PDGFβ (Homo sapiens, UniProt P09619)
Experiment: PDGFβ enzyme assay
Assay type: biochemical
Details: Table IV, amide or urea linker
PROPERTY_MEASURED: IC50 (nM)

[1] Cc1ccc(F)c(NC(=O)c2ccc(F)c(Oc3ccnc(-c4cc(C(=O)N[C@@H](CCC(=O)OC(C)(C)C)C(=O)O)c[nH]4)c3)c2)c1
[2] COC(=O)[C@@H]1CCCN1CCCNC(=O)c1c[nH]c(-c2cc(Oc3cc(C(=O)Nc4cc(C)ccc4F)ccc3F)ccn2)c1
[3] Cc1ccc(F)c(NC(=O)Nc2ccc(Oc3ccnc(-c4cc(C(=O)NCCCN(CC(=O)O)CC(=O)O)c[nH]4)c3)cc2)c1
Give the descending IC50 ranking for the 3 molecules listed above. The labels, placed in the requested order, form the answer.
1, 2, 3

[P] COC(=O)CC[C@H](NC(=O)c1c[nH]c(-c2cc(Oc3cc(C(=O)Nc4cc(C)ccc4F)ccc3F)ccn2)c1)C(=O)O
[Q] Cc1cccc(NC(=O)Nc2ccc(Oc3ccnc(-c4cc(C(=O)NN)c[nH]4)c3)cc2)c1
[R] CCNC(=O)[C@H](CCC(=O)OC(C)(C)C)NC(=O)c1c[nH]c(-c2cc(Oc3cc(C(=O)Nc4cc(C)ccc4F)ccc3F)ccn2)c1
Sort these molecules on IC50 so the largest reading comes first. Reply with the item labels sorted in the order that was asked for.
R, P, Q

----------
Biological target: PDGFβ (Homo sapiens, UniProt P09619)
Experiment: PDGFβ enzyme assay
Assay type: biochemical
Details: Table IV, amide or urea linker
PROPERTY_MEASURED: IC50 (nM)

// solved cases for IC50 follow
{"MOLECULE": "Cc1ccc(F)c(NC(=O)Nc2ccc(Oc3ccnc(-c4cc(C(=O)OCCCN5CCOCC5)c[nH]4)c3)cc2)c1 [Example 274]", "PROPERTY_MEASURED": "IC50", "UNITS_TEXT": "nM", "EXPERIMENTAL_VALUE": 27}
{"MOLECULE": "Cc1ccc(F)c(NC(=O)c2ccc(F)c(Oc3ccnc(-c4cc(C(=O)NCCC(=O)O)c[nH]4)c3)c2)c1 [Example 258]", "PROPERTY_MEASURED": "IC50", "UNITS_TEXT": "nM", "EXPERIMENTAL_VALUE": 41}
{"MOLECULE": "Cc1ccc(F)c(NC(=O)c2ccc(F)c(Oc3ccnc(-c4cc(C(=O)NCCCN5CCC(O)CC5)c[nH]4)c3)c2)c1 [Example 184]", "PROPERTY_MEASURED": "IC50", "UNITS_TEXT": "nM", "EXPERIMENTAL_VALUE": 49}
{"MOLECULE": "COC(=O)CCNC(=O)c1c[nH]c(-c2cc(Oc3cc(C(=O)Nc4cc(C)ccc4F)ccc3F)ccn2)c1 [Example 259]", "PROPERTY_MEASURED": "IC50", "UNITS_TEXT": "nM", "EXPERIMENTAL_VALUE": 47}
{"MOLECULE": "Cc1ccc(F)c(NC(=O)Nc2ccc(Oc3ccnc(-c4cc(C(=O)NCCCNC(=O)OC(C)(C)C)c[nH]4)c3)cc2)c1 [Example 251]", "PROPERTY_MEASURED": "IC50", "UNITS_TEXT": "nM", "EXPERIMENTAL_VALUE": 79}

[P] Cc1ccc(F)c(NC(=O)Nc2ccc(Oc3ccnc(-c4cc(C(=O)NCCNC(=O)OC(C)(C)C)c[nH]4)c3)cc2F)c1 [Example 216]
[Q] Cc1ccc(F)c(NC(=O)Nc2ccc(Oc3ccnc(-c4cc(C(=O)N5CCN(CC(=O)O)CC5)c[nH]4)c3)cc2F)c1 [Example 218]
Determine, for P and Q , which has the greater value of IC50. Please identify the chosen entry by its label.
P
(P: 59 nM, Q: 16 nM)

----------
Here we list compounds with their recorded IC50 when tested on VEGFR1 (Homo sapiens, UniProt P17948).
Sequence (P17948 27-1338, species assumed): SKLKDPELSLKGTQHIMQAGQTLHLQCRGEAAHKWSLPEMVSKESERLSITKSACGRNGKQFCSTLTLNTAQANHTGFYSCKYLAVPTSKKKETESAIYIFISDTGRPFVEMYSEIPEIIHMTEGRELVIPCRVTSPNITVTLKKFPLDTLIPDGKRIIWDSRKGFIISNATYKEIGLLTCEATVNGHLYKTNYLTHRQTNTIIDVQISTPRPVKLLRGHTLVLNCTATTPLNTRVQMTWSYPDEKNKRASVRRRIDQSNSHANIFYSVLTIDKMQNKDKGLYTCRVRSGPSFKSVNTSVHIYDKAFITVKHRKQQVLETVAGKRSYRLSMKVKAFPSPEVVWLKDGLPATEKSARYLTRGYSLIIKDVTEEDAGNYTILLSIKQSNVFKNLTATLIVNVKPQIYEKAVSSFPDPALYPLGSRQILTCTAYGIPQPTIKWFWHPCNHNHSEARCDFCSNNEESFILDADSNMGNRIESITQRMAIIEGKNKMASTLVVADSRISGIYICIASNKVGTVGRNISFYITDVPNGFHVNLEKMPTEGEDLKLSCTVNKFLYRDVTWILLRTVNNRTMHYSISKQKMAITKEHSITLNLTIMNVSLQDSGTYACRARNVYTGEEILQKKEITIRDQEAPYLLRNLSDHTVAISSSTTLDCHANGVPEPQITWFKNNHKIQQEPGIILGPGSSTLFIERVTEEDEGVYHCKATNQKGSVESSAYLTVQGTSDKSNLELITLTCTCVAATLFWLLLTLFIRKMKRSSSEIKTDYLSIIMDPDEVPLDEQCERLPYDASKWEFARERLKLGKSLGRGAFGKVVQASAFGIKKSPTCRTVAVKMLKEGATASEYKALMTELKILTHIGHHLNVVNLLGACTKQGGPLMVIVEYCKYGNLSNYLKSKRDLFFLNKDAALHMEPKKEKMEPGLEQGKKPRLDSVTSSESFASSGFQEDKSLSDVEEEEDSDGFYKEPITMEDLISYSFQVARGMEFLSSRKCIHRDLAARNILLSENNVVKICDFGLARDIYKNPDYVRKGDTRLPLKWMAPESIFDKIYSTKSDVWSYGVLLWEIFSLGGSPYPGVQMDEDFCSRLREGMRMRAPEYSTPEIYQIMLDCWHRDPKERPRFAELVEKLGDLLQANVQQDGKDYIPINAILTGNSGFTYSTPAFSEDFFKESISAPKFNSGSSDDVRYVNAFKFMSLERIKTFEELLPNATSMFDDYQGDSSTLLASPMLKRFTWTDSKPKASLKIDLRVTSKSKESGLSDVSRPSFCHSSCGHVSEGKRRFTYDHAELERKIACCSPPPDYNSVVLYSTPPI
PROPERTY_MEASURED: IC50 (nM)

[1] Cc1ccc(F)c(NC(=O)Nc2ccc(Oc3ccnc(-c4cc(C(=O)NCC(=O)O)c[nH]4)c3)cc2F)c1 [Example 210]
[2] CCOC(=O)CCCCNC(=O)c1c[nH]c(-c2cc(Oc3ccc(NC(=O)Nc4cc(C)ccc4F)cc3)ccn2)c1 [Example 167]
[3] COC(=O)CN(CCNC(=O)c1c[nH]c(-c2cc(Oc3ccc(NC(=O)Nc4cc(C)ccc4F)c(F)c3)ccn2)c1)CC(=O)OC [Example 215]
Order each entry by recorded IC50, climbing from the minimum. List labels; respect the requested ordering.
1, 3, 2

----------
Target: PDGFβ (Homo sapiens)
Assay: PDGFβ enzyme assay
Format: biochemical
Conditions: Table IV, amide or urea linker
PROPERTY_MEASURED: IC50 (nM)

{"MOLECULE": "COC(=O)CN(CCCNC(=O)c1c[nH]c(-c2cc(Oc3ccc(NC(=O)Nc4cc(C)ccc4F)c(F)c3)ccn2)c1)CC(=O)OC [Example 213]", "PROPERTY_MEASURED": "IC50", "EXPERIMENTAL_VALUE": 38}

[a] COC(=O)CC[C@H](NC(=O)c1c[nH]c(-c2cc(Oc3ccc(NC(=O)Nc4cccc(C)c4)c(F)c3)ccn2)c1)C(=O)OC [Example 230]
[b] COC(=O)CN(CCNC(=O)c1c[nH]c(-c2cc(Oc3ccc(NC(=O)Nc4cc(C)ccc4F)cc3)ccn2)c1)CC(=O)OC [Example 156]
Which value of IC50 is numerically greater: that of a or that of b ? Reply briefly: the label of your chosen item.
b
(b: 31 nM, a: 12 nM)

[I] Cc1cccc(NC(=O)Nc2ccc(Oc3ccnc(-c4cc(C(=O)NCCCN5CCOCC5)c[nH]4)c3)cc2)c1 [Example 239]
[II] CCOC(=O)CN1CCN(C(=O)c2c[nH]c(-c3cc(Oc4ccc(NC(=O)Nc5cc(C)ccc5F)c(F)c4)ccn3)c2)CC1 [Example 219]
Please let me know which one, I or II , has a lower measured IC50 value. Write down the label attached to your selection.
I

----------
Target: UniProt:P17948
PROPERTY_MEASURED: IC50 (nM)

Before answering, review these 3 worked examples.
{"COMPOUND": "CCOC(=O)N1CCN(CCCNC(=O)c2c[nH]c(-c3cc(Oc4ccc(NC(=O)Nc5cc(C)ccc5F)c(F)c4)ccn3)c2)CC1", "IC50 / nM": 11}
{"COMPOUND": "Cc1ccc(F)c(NC(=O)Nc2ccc(Oc3ccnc(-c4cc(C(=O)NCCCN5CCCC(CO)C5)c[nH]4)c3)cc2)c1 (centres unmarked)", "IC50 / nM": 7}
{"COMPOUND": "CCNC(=O)[C@H](CCC(=O)O)NC(=O)c1c[nH]c(-c2cc(Oc3cc(C(=O)Nc4cc(C)ccc4F)ccc3F)ccn2)c1", "IC50 / nM": 44}

[A] Cc1ccc(F)c(NC(=O)Nc2ccc(Oc3ccnc(-c4cc(C(=O)NCCCN5CCC(O)CC5)c[nH]4)c3)cc2F)c1
[B] Cc1ccc(F)c(NC(=O)c2ccc(F)c(Oc3ccnc(-c4cc(C(=O)NCCCN5CCCC5)c[nH]4)c3)c2)c1
Response body: label of entry with the larger IC50; valid values A , B . I would appreciate it if you answered with the label of your choice.
B

[P] COC(=O)CNCCCNC(=O)c1c[nH]c(-c2cc(Oc3ccc(NC(=O)Nc4cc(C)ccc4F)c(F)c3)ccn2)c1
[Q] Cc1ccc(F)c(NC(=O)Nc2ccc(Oc3ccnc(-c4cc(C(=O)N5CCC5)c[nH]4)c3)cc2)c1
Between P and Q , which one shows the smaller IC50 number? Answer by stating the label of the chosen item.
P

[I] Cc1ccc(F)c(NC(=O)c2ccc(F)c(Oc3ccnc(-c4cc(C(=O)N[C@@H](CCC(=O)O)C(=O)O)c[nH]4)c3)c2)c1 (stereo in doubt)
[II] COC(=O)[C@@H]1C[C@@H](O)CN1CCCNC(=O)c1c[nH]c(-c2cc(Oc3ccc(NC(=O)Nc4cc(C)ccc4F)cc3)ccn2)c1 (relative stereo)
[III] Cc1ccc(F)c(NC(=O)Nc2ccc(Oc3ccnc(-c4cc(C(=O)NCCCc5nn[nH]n5)c[nH]4)c3)cc2)c1
Rank the 3 compounds: largest IC50 first, smallest last. Give the order by naming the labels one after another as requested.
I, II, III
(I: 28 nM, II: 10 nM, III: 6 nM)

[1] COC(=O)CNCCCNC(=O)c1c[nH]c(-c2cc(Oc3cc(C(=O)Nc4cc(C)ccc4F)ccc3F)ccn2)c1
[2] Cc1ccc(F)c(NC(=O)Nc2ccc(Oc3ccnc(-c4cc(C(=O)NCCCN5CCOC(CO)C5)c[nH]4)c3)cc2F)c1 (centres unmarked)
[3] COC(=O)CN(CCCNC(=O)c1c[nH]c(-c2cc(Oc3cc(C(=O)Nc4cc(C)ccc4F)ccc3F)ccn2)c1)CC(=O)OC
[4] Cc1ccc(F)c(NC(=O)Nc2ccc(Oc3ccnc(-c4cc(C(=O)NCCCNC(=O)OC(C)(C)C)c[nH]4)c3)cc2)c1
Ordering criterion: IC50; begin with the maximum. Respond with the label ranking, as requested.
3, 1, 4, 2

[A] COC(=O)CN(CCCNC(=O)c1c[nH]c(-c2cc(Oc3ccc(NC(=O)Nc4cc(C)ccc4F)cc3)ccn2)c1)CC(=O)OC
[B] COCCOC(=O)c1c[nH]c(-c2cc(Oc3ccc(NC(=O)Nc4cc(C)ccc4F)c(F)c3)ccn2)c1
[C] Cc1ccoc1C(=O)Nc1cc(Oc2ccnc(-c3cc(C(=O)NCCCN4CCCC4)c[nH]3)c2)ccc1F
Sort the compounds on IC50; start with the lowest figure. # respond with the labels, arranged in the requested order
B, A, C
(B: 11 nM, A: 16 nM, C: 34 nM)

[a] Cc1ccc(F)c(NC(=O)c2ccc(F)c(Oc3ccnc(-c4cc(C(=O)NCCCN5CCOCC5)c[nH]4)c3)c2)c1
[b] Cc1ccc(F)c(NC(=O)Nc2ccc(Oc3ccnc(-c4cc(C(=O)NCCN)c[nH]4)c3)cc2F)c1
[c] Cc1ccc(F)c(NC(=O)Nc2ccc(Oc3ccnc(-c4cc(C(=O)NCCCN)c[nH]4)c3)cc2)c1
Form: Sort by [IC50] Order [ ascending ] Labels, ranked as asked.
c, b, a

[a] Cc1ccc(F)c(NC(=O)Nc2ccc(Oc3ccnc(-c4cc(C(=O)NCCCN5CCCC5C(=O)O)c[nH]4)c3)cc2)c1 (centres unmarked)
[b] Cc1ccc(F)c(NC(=O)Nc2ccc(Oc3ccnc(-c4cc(C(=O)NCCCC(=O)OCC(CO)(CO)CO)c[nH]4)c3)cc2)c1
[c] COC(=O)CNCCNC(=O)c1c[nH]c(-c2cc(Oc3cc(C(=O)Nc4cc(C)ccc4F)ccc3F)ccn2)c1
Task field, ranking: reported IC50, descending order. # output: labels, in the requested order
c, a, b

[P] CCNC(=O)[C@H](CCC(=O)OC(C)(C)C)NC(=O)c1c[nH]c(-c2cc(Oc3cc(C(=O)Nc4cc(C)ccc4F)ccc3F)ccn2)c1
[Q] Cc1ccc(F)c(NC(=O)Nc2ccc(Oc3ccnc(-c4cc(C(=O)NCCCN)c[nH]4)c3)cc2F)c1
Of P and Q , whose reported IC50 is numerically smaller? Answer format: the label of the selected item.
Q
(Q: 12 nM, P: 24 nM)
